Measured target: hOX2R (Homo sapiens, UniProt O43614)
Sequence (O43614 whole entry): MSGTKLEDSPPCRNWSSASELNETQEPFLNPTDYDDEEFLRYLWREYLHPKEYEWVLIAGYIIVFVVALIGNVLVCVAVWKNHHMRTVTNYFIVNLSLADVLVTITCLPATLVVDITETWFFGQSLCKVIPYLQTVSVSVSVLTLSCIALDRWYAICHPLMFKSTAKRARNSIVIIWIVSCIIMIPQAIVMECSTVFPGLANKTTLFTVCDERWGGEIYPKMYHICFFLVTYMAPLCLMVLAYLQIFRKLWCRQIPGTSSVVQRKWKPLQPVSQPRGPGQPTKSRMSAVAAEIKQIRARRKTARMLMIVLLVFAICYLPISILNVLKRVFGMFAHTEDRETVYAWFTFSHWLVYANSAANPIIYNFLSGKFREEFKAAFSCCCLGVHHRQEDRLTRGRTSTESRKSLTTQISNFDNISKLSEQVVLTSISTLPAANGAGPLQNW
Measurement protocol: hOX2R IPone assay (orexin receptor agonism)
Condition details: orexin receptor agonist, IPone readout; read-out: hOX2R_IPone EC50
Just a reminder that ties go to no (0): only EC50 strictly below 2 nM counts as yes (1).

Previously resolved entries follow.
INSERT INTO measurements (compound, classification) VALUES
  ('CCN1C(=O)N[C@@H](CCC(F)(F)F)CCCCCOc2nc(cn3ncnc23)-c2ccnc(c2)[C@H]1C', 'no (0)'),
  ('CCN1C(=O)NC(CC(C)C)CCCCCOc2nc(cn3ccnc23)-c2cc(ncc2OC)[C@H]1C (single isomer, unassigned) [Example 53B]', 'yes (1)'),
  ('CCN1C(=O)N[C@@H](CCC(F)(F)F)CCCCCOc2nc(cn3ccnc23)C2=NC=C(S2)C1C (single isomer, unassigned) [Example 94B]', 'no (0)'),
  ('CCN1C(=O)NC(CCC(F)(F)F)CCCCCOc2nc(cn3ccnc23)-c2cc(ncc2Cl)[C@H]1C (some centres unmarked)', 'yes (1)'),
  ('CCN1C(=O)NC(CCC(F)F)CCCCCOc2nc(nn3ccnc23)-c2cc(ncc2OC)[C@H]1C (some centres unmarked)', 'yes (1)'),
  ('CCN1C(=O)N[C@@H](CCC(F)(F)F)CCCCCOc2cc(cn3ccnc23)-c2nc(ccc2OC)[C@H]1C', 'yes (1)'),
  ('CCN1C(=O)N[C@@H](CCC(F)(F)F)CCCCCOc2nc(cn3c(C)cnc23)-c2cc(nc3ccoc23)C1C (single isomer, unassigned) [Example 76A]', 'no (0)'),
  ('CCN1C(=O)N[C@@H](CCC(F)(F)F)CCCCCOc2nc(cn3ccnc23)-c2nc(ncc2OC)[C@H]1C [Example 117B]', 'yes (1)'),
  ('CCN1C(=O)NC(C(O)CC(F)(F)F)CCCCCOc2nc(cn3ncnc23)-c2cc(ncc2OC)C1C (single isomer, unassigned)', 'no (0)'),
  ('CCN1C(=O)N[C@H](C(F)(F)F)CCCCCOc2nc(cn3ccnc23)-c2cc(ncc2OC)[C@H]1C', 'no (0)');

Query: State whether 2 nM exceeds EC50 recorded for CCN1C(=O)NC(CCC(F)(F)F)C(C)CCCOc2nc(cn3ccnc23)-c2cccc(c2)[C@H]1C (single isomer, unassigned) [Example 42C] .
Response: no (0)

Query: State whether 2 nM exceeds EC50 recorded for CCN1C(=O)N[C@@H](CCC(F)(F)F)CCCCCOc2nc(c(C)n3ccnc23)-c2cc(cnc2OC)[C@H]1C .
Response: no (0)

Query: State whether 2 nM exceeds EC50 recorded for CCN1C(=O)NC(CC23CC(C2)C3)CCCCCOc2nc(nn3ccnc23)-c2cc(ncc2OC)[C@H]1C (some centres unmarked) .
Response: no (0)

Query: State whether 2 nM exceeds EC50 recorded for CCN1C(=O)NC(C(O)CC(F)(F)F)CCCCCOc2cn3ncnc3c(n2)-c2cc(ncc2OC)C1C (centres unmarked) .
Response: no (0)

Query: State whether 2 nM exceeds EC50 recorded for CCN1C(=O)N[C@@H](CC(F)(F)F)CCCCCOc2nc(cn3ccnc23)-c2cc(ncc2OC)[C@H]1C .
Response: yes (1)

Query: State whether 2 nM exceeds EC50 recorded for CCN1C(=O)NC(CCC(F)(F)F)CCOCCOc2cn3ncnc3c(n2)-c2ccnc(c2)C1C (centres unmarked) .
Response: yes (1)

Query: State whether 2 nM exceeds EC50 recorded for CCN1C(=O)N[C@@H](CCC(F)(F)F)CCCCCOc2nc(cn3ccnc23)-c2cc(c(C)cn2)C1C (single isomer, unassigned) [Example 92A] .
Response: no (0)

Query: State whether 2 nM exceeds EC50 recorded for CCN1C(=O)NC(C(C)(C)C)CCCCCOc2nc(cn3ccnc23)-c2cc(ncc2OC)[C@H]1C (single isomer, unassigned) [Example 63A] .
Response: no (0)

Query: State whether 2 nM exceeds EC50 recorded for CCN1C(=O)N[C@@H](CCC(F)F)CCCCCOc2nc(cn3ncnc23)-c2cc(ncc2Cl)[C@H]1C .
Response: no (0)

Query: State whether 2 nM exceeds EC50 recorded for CCN1C(=O)NCCN2CCCC(C2)Oc2nc(cn3ccnc23)-c2cccc(c2)[C@H]1C (mixture of isomers) .
Response: no (0)

Query: State whether 2 nM exceeds EC50 recorded for CCN1C(=O)NC2CN(CCCOc3nc(cn4ccnc34)-c3cc(ncc3OC)[C@H]1C)CC2C(F)(F)F (single isomer, unassigned) .
Response: no (0)

Query: State whether 2 nM exceeds EC50 recorded for CCN1C(=O)N[C@@H](CCC(F)(F)F)CCCCCOc2nc(nn3ccnc23)-c2cc(cnc2OC)[C@H]1C .
Response: no (0)

Query: State whether 2 nM exceeds EC50 recorded for CCN1C(=O)N[C@@H](CCC(F)(F)F)CCCCCOc2nc(cn3ccnc23)-c2cc(cnc2C)[C@H]1C .
Response: yes (1)

Query: State whether 2 nM exceeds EC50 recorded for CCN1C(=O)NC(CCC(F)(F)F)COCCCOc2nc(cn3ccnc23)-c2cc(ncc2OC)[C@H]1C (single isomer, unassigned) [Example 21B] .
Response: yes (1)

Query: State whether 2 nM exceeds EC50 recorded for CCOCC1CCCCCOc2nc(cn3ccnc23)-c2cc(ncc2OC)[C@@H](C)N(CC)C(=O)N1 (single isomer, unassigned) [Example 62B] .
Response: yes (1)

Query: State whether 2 nM exceeds EC50 recorded for CCN1C(=O)N[C@@H](CCC(F)(F)F)CCCCCOc2nc(nc3ccnn23)-c2cc(ncc2OC)[C@H]1C .
Response: no (0)
